# systemTested: T1, human amylin 3(a) receptor (human calcitonin receptor co-expressed with RAMP-3) (human, UniProt P30988 25-474; O60896 24-148, limits assumed)
# T1 construct: whole, on cells; Whole BHK amylin 3(a)-receptor/CRE-luc cells in the functional assay (Assay II a); also called hAmylin-R; hAmylinR
# T1 sequence (looked up) 1: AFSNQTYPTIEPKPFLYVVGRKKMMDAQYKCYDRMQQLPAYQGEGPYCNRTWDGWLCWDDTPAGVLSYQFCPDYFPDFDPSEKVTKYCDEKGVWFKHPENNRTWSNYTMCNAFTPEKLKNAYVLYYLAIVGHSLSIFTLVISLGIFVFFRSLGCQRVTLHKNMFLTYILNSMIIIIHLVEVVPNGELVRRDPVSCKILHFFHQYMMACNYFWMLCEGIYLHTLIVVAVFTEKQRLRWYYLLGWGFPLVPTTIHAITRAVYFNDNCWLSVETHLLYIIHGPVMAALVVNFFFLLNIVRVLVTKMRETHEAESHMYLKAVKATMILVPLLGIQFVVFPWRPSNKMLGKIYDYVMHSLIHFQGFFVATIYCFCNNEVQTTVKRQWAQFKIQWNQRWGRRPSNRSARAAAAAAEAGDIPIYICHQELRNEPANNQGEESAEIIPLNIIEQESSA
# T1 sequence (looked up) 2: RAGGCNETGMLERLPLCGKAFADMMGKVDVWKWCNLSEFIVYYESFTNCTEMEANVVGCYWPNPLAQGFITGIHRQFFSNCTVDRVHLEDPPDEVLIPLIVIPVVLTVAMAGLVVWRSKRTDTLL
# assayExplanation: SPA competition vs 125I-rat amylin, membranes of BHK Amylin 3(a)/CRE-luc cells (Assay V)
quantityKind: IC50 (nM)
Answer in nM, number only, no unit symbol.

Req: Any idea what IC50 was measured for KCNTATCATQRLANFLRHSSPNFGAIPSSTNVGSNTY (alpha-amino group of N-terminal Lys1 acylated with C20 diacid via linker gGlu-2xOEG; disulfide bridge Cys2-Cys7 and C-terminal amide as in human amylin, also called compound 24) ?
Resp: 1.14

Each recorded value in this set is attributed to patent US20140087995A1.
